# subject of test: T1, human IL-12Rβ2 (human, UniProt Q99665 24-862)
# T1 construct: Expressed on HEK293T cells transiently transfected with a pcDNA3 plasmid (Genscript clone OHu21785); also called hIL-12RB2; IL-12 receptor β2 subunit
# T1 sequence: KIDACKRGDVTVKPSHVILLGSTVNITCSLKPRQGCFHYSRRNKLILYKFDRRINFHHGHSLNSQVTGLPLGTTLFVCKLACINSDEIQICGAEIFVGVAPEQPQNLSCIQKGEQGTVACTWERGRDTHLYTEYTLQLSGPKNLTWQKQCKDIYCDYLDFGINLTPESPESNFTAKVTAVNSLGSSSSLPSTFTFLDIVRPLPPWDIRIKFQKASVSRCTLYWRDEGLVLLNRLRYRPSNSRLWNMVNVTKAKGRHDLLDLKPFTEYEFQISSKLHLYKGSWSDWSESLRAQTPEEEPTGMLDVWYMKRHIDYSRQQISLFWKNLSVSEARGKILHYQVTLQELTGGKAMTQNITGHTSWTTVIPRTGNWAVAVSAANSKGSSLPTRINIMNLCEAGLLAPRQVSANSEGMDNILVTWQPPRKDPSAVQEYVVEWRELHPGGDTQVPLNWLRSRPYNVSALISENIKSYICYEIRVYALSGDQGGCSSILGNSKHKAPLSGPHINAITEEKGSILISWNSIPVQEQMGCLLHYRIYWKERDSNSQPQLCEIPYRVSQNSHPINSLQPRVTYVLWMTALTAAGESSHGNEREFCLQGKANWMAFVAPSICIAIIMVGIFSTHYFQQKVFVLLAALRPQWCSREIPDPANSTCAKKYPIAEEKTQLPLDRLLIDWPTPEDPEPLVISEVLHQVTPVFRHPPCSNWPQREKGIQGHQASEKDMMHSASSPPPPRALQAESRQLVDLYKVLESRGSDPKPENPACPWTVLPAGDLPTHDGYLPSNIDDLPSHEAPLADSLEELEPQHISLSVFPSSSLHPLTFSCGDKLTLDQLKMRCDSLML
# assay procedure: flow cytometry, P.E. on transfected HEK293T cells
Catalogue of binders with associated dMFI
// response body must contain only the number

Field: example entries. Status: answers known.
1. anti-IL-12Rβ2 VHH clone 3CRH64 (VHH, not shown: small tags and cut ends, periplasmic extract) VHH: QVQLQESGGGLVQAGGSLRLSCTASGHTFSRYTTIGWFRQAPGKDREFVAAIRWSGDITDYADAVKGRFTISRDNVKNTVYLQTNSLNPEDTAVYYCARGYSEYGVLSRNRGLYAYWGQGTQVTVSS : 645
2. anti-IL-12Rβ2 VHH clone 3CAHS79 (VHH, not shown: small tags and cut ends, periplasmic extract) VHH: QVQLQESGGGLVQPGGSLRLTCVASGFPFSTHAMSWVRQPPGKGREWISAINSGGDSTDYADSVMGRFTISRDNAKNTVYLQMNSLKSEDTAVYYCAKYEDCSDYDCSSRASWGQGTQVTVSS : 1230

As a next step, examine the binder that follows.
What does the data say about its dMFI? Entry: anti-IL-12Rβ2 VHH clone 3CAHS153 (VHH, not shown: small tags and cut ends, periplasmic extract) VHH: QVQLQESGGGLVQAGGSLRLSCAASGRTFSSYAMGWFRQVPGKERDFVAAVSWGGLSTYYADSVEGRFTISRDNAKNTVFLQMNSLKPEDTAVYYCAADRAYEGLGYGEYEYWGQGTQVTVSS
789
